# Tested on: SW620 human metastatic colon cancer cells
# PROTOCOL: MTT assay, SW620 cells
# Format: cell-based
# CONDITION DETAILS: SW-620, 72 h, read-out: IC50 SW620
MEASURED PARAMETER: IC50 (µM)
Answers are plain numbers, in µM.

Completed entries (count: 5):
CC[C@@H](C(=O)[C@@H](C)[C@@H](O)[C@H](C)[C@@H]1O[C@@H]([C@@H](CC)C(=O)O)CC[C@@H]1C)[C@H]1O[C@]2(C=C[C@H](NC(=O)CCC[P+](c3ccccc3)(c3ccccc3)c3ccccc3)[C@]3(CC[C@@](C)([C@H]4CC[C@](O)(CC)[C@H](C)O4)O3)O2)[C@H](C)C[C@@H]1C [1e] : 10.9
CCC1(C2OC(C3OC(O)(Cn4cc(CNC(=O)CCC[P+](c5ccccc5)(c5ccccc5)c5ccccc5)nn4)C(C)CC3C)CC2C)CCC(C2(C)CCC3(CC(O)C(C)C(C(C)C(OC)C(C)C(=O)O)O3)O2)O1 (stereo not drawn) [2c] : 10.6
CCC1(C2OC(C3OC(O)(COC(=O)CCC(=O)OCCC[P+](c4ccccc4)(c4ccccc4)c4ccccc4)C(C)CC3C)CC2C)CCC(C2(C)CCC3(CC(O)C(C)C(C(C)C(OC)C(C)C(=O)OCCC[P+](c4ccccc4)(c4ccccc4)c4ccccc4)O3)O2)O1 (stereo not drawn) [2f] : 2.3
CC[C@@H](C(=O)[C@@H](C)[C@@H](O)[C@H](C)[C@@H]1O[C@@H]([C@@H](CC)C(=O)O)CC[C@@H]1C)[C@H]1O[C@]2(C=C[C@H](n3cc(COC(=O)CCC[P+](c4ccccc4)(c4ccccc4)c4ccccc4)nn3)[C@]3(CC[C@@](C)([C@H]4CC[C@](O)(CC)[C@H](C)O4)O3)O2)[C@H](C)C[C@@H]1C [1b] : 16.8
CCCC[P+](CCCC)(CCCC)Cc1cn(CC2(O)OC(C3CC(C)C(C4(CC)CCC(C5(C)CCC6(CC(O)C(C)C(C(C)C(OC)C(C)C(=O)O)O6)O5)O4)O3)C(C)CC2C)nn1 (stereo not drawn) [2d] : 4.3

Pending compound:
Noted for CC[C@@H](C(=O)[C@@H](C)[C@@H](O)[C@H](C)[C@@H]1O[C@@H]([C@@H](CC)C(=O)O)CC[C@@H]1C)[C@H]1O[C@]2(C=C[C@H](n3cc(CNC(=O)CCC[P+](c4ccccc4)(c4ccccc4)c4ccccc4)nn3)[C@]3(CC[C@@](C)([C@H]4CC[C@](O)(CC)[C@H](C)O4)O3)O2)[C@H](C)C[C@@H]1C [1c] : its IC50 reads 14
